The reported measurements were obtained from ChEMBL document CHEMBL1123772.

# experimental system: Adrenergic receptor alpha-1 (Rattus norvegicus, UniProt P15823+P23944+P43140)
# protocol description: In vitro binding affinity determined for alpha-1 adrenergic receptor by the displacement of [3H]- prazosin.
# Type: protein assay
assay endpoint: Ki (nM)

Field: example entries. Status: answers known.
compound	unit label	measured
CCN(CC)C(=O)C1CCN(c2nc(N)c3cc(OC)c(OC)cc3n2)CC1	nM	1.11
COc1cc2nc(N3CCC(CC(=O)NCC4CC4)CC3)nc(N)c2cc1OC	nM	1.08
COc1cc2nc(N3CCC(C(=O)NCc4ccccc4)CC3)nc(N)c2cc1OC	nM	0.22

[1] COc1cc2nc(N3CCC(C(=O)NCCOc4ccccc4)CC3)nc(N)c2cc1OC
[2] CCCCNC(=O)COC1CCN(c2nc(N)c3cc(OC)c(OC)cc3n2)CC1
INPUT: Could you tell me which of these two has the smaller Ki figure? First: 1 Second: 2 Write down the label attached to your selection.
OUTPUT: 1

[A] CCCCNC(=O)CC1CCN(c2nc(N)c3cc(OC)c(OC)cc3n2)CC1
[B] CCCCNC(=O)CCC1CCN(c2nc(N)c3cc(OC)c(OC)cc3n2)CC1
[C] COc1cc2nc(N3CCC(C(=O)N(C)Cc4ccccc4)CC3)nc(N)c2cc1OC
INPUT: Highest Ki first, then in falling order down to the smallest. Quick reminder: the answer is the labels in the order asked.
OUTPUT: A, B, C
(A: 1.4 nM, B: 0.47 nM, C: 0.2 nM)

[a] CCNC(=O)C1CCN(c2nc(N)c3cc(OC)c(OC)cc3n2)CC1
[b] CCCCNC(=O)C1CCN(c2nc(N)c3cc(OC)c(OC)cc3n2)CC1
INPUT: Would you kindly point out which of a and b has the smaller Ki figure? Kindly give the label for the entry you pick.
OUTPUT: b

[a] COc1cc2nc(N3CCC(C(=O)Nc4ccccc4)CC3)nc(N)c2cc1OC
[b] CCCCNC(=O)C1CCCN(c2nc(N)c3cc(OC)c(OC)cc3n2)C1 (stereo unspecified)
INPUT: Lab note: check whether a or b shows the higher recorded Ki. State the label of the item chosen.
OUTPUT: b
(b: 8.25 nM, a: 0.47 nM)

----------
# experimental system: Adrenergic receptor alpha-1 (Rattus norvegicus, UniProt P15823+P23944+P43140)
# Sequence (P15823 whole entry): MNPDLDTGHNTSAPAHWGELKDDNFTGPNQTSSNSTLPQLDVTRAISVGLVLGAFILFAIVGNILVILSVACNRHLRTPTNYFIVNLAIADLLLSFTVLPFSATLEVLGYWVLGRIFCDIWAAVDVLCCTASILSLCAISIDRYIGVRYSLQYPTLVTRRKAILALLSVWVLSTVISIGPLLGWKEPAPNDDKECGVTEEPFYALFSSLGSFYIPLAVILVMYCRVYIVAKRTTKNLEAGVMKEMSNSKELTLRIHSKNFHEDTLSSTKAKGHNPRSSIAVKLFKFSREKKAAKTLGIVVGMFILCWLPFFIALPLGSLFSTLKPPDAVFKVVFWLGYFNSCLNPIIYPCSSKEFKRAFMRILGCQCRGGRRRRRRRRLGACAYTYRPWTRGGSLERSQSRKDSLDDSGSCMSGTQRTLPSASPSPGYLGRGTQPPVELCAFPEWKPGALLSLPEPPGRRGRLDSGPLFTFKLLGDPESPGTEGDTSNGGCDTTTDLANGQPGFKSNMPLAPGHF
# Sequence (P23944 whole entry): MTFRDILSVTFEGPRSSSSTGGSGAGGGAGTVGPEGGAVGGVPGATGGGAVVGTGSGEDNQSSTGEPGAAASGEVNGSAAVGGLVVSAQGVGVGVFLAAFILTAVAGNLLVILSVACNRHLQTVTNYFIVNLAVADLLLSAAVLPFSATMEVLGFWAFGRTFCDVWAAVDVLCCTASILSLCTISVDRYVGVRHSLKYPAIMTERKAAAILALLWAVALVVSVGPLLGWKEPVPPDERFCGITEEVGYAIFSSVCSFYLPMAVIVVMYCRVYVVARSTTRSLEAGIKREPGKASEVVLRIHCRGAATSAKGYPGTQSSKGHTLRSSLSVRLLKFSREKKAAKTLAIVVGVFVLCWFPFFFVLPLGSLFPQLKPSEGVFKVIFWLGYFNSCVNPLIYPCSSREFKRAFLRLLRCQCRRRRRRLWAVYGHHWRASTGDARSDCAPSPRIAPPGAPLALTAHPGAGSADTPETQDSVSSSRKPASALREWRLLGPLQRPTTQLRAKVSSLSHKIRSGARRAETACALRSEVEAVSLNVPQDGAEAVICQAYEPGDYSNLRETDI
# Sequence (P43140 whole entry): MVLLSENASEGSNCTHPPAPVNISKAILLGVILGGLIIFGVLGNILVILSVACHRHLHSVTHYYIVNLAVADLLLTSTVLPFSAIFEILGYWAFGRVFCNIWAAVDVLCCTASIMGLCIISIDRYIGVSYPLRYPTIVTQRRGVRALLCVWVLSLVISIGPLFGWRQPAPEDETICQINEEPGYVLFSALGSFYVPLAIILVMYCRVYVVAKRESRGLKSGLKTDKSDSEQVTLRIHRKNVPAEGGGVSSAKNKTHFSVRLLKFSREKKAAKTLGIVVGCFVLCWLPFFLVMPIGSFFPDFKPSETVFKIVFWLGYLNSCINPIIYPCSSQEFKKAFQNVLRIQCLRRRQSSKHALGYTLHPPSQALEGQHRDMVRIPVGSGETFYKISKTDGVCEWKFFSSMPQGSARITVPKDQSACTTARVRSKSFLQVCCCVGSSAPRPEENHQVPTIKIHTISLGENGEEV
# protocol description: In vitro binding affinity determined for alpha-1 adrenergic receptor by the displacement of [3H]- prazosin.
# Format: protein assay
assay endpoint: Ki (nM)

compound	experimental system	assay endpoint	measured
COc1cc2nc(N3CCC(C(=O)NC4CCCC4)CC3)nc(N)c2cc1OC	Adrenergic receptor alpha-1 (Rattus norvegicus, UniProt P15823+P23944+P43140)	Ki	0.63
COc1cc2nc(N3CCC(C(=O)N4CCOCC4)CC3)nc(N)c2cc1OC	Adrenergic receptor alpha-1 (Rattus norvegicus, UniProt P15823+P23944+P43140)	Ki	1.14
COc1cc2nc(N3CCC(C(N)=O)CC3)nc(N)c2cc1OC	Adrenergic receptor alpha-1 (Rattus norvegicus, UniProt P15823+P23944+P43140)	Ki	1.46
COc1cc2nc(N3CCC(C(=O)NCCO)CC3)nc(N)c2cc1OC	Adrenergic receptor alpha-1 (Rattus norvegicus, UniProt P15823+P23944+P43140)	Ki	1.73

[I] COc1cc2nc(N3CCC(C(=O)NCC4CC4)CC3)nc(N)c2cc1OC
[II] COc1cc2nc(N3CCC(C(=O)NCCc4ccccc4)CC3)nc(N)c2cc1OC
[III] CCN(CC)C(=O)C1CCCN(c2nc(N)c3cc(OC)c(OC)cc3n2)C1 (centres undefined)
INPUT: Please produce an ascending ranking of these compounds based on Ki. Answer by writing out the labels in the requested order.
OUTPUT: II, I, III
(II: 0.1 nM, I: 0.9 nM, III: 116.73 nM)

[a] CCCNC(=O)CC1CCN(c2nc(N)c3cc(OC)c(OC)cc3n2)CC1
[b] COCCNC(=O)C1CCN(c2nc(N)c3cc(OC)c(OC)cc3n2)CC1
INPUT: Of the two listed items, which has the higher Ki? First: a Second: b Use the label to indicate which entry you chose.
OUTPUT: b
